test-details: Cytotoxicity against human CD34-positive cells
Assay type: toxicity, cell-based, CD34-positive (myeloid/lymphoid) cell
reported-metric: GI50

Look up GI50 for this molecule: CC1CN(S(C)(=O)=O)CCC1n1cc(-c2cccc(C(N)=S)c2)c2ccc(N)cc21 (stereo unspecified)
> 50 µM
